Field: Cholesterol (total), Average. Provide a value for each of the compounds that follow.
- Tested on: rats (SLAC/GK, type 2 diabetes)
- assay info: Blood lipid in type 2 diabetes rats, oral with food
- Assay type: in vivo, rat
- applied conditions: end of the fifth week, equal to 20 mg/kg of NSAIAs every day
Kindly provide the numeric value in mmol/L only, without the unit symbol.

Qu. Fill in the blank: the reported Cholesterol (total), Average of CC(=O)Oc1ccc(-c2ccc(F)cc2F)cc1C(=O)O.CCN(CC)CCOC(=O)c1cc(-c2ccc(F)cc2F)ccc1OC(C)=O [P-8] is ____.
Ans. 5.7

Qu. Fill in the blank: the reported Cholesterol (total), Average of CC(=O)Oc1ccccc1C(=O)Oc1ccccc1C(=O)Oc1ccccc1C(=O)O.CCN(CC)CCOC(=O)c1ccccc1OC(=O)c1ccccc1OC(C)=O [P-60] is ____.
Ans. 5.5

Qu. Fill in the blank: the reported Cholesterol (total), Average of CCN(CC)CCOC(=O)c1cc(NC(C)=O)ccc1OC(C)=O [P-58] is ____.
Ans. 5.8

Qu. Fill in the blank: the reported Cholesterol (total), Average of CC(=O)O.CCN(CC)CCOC(=O)c1ccccc1OC(=O)c1ccccc1O [diethylaminoethyl salicylsalicylate.AcOH] is ____.
Ans. 5.6

Qu. Fill in the blank: the reported Cholesterol (total), Average of CC(=O)Oc1ccccc1C(=O)Oc1ccccc1C(=O)O.CCN(CC)CCOC(=O)c1ccccc1OC(=O)c1ccccc1OC(C)=O [P-59] is ____.
Ans. 5.7

Qu. Fill in the blank: the reported Cholesterol (total), Average of CC(=O)Oc1ccccc1C(=O)O.CCN(CC)CCOC(=O)c1ccccc1OC(C)=O [P-1] is ____.
Ans. 4.1

Qu. Fill in the blank: the reported Cholesterol (total), Average of CC(=O)Nc1ccc(OC(=O)c2ccccc2OC(=O)CCCN(C)C)cc1.Cl [P-6] is ____.
Ans. 4.9

Qu. Fill in the blank: the reported Cholesterol (total), Average of CC(=O)O.CCN(CC)CCOC(=O)c1ccccc1O [diethylaminoethyl salicylate.AcOH] is ____.
Ans. 5.2

====

- assay info: Solubility in water / aqueous solubility of HPPs and parent drugs
- applied conditions: water
metric: solubility (µg/mL)
Kindly provide the numeric value in µg/mL only, without the unit symbol.

Qu. Fill in the blank: the reported solubility of CC(C(=O)O)c1ccc(C(=O)c2ccccc2)s1 (stereo not shown) [Tiaprofenic acid, tiaprofenic acid, reference compound] is ____.
Ans. 100

Qu. Fill in the blank: the reported solubility of CC(C(=O)O)c1cccc(Oc2ccccc2)c1 (stereo not shown) [Fenoprofen, 2-(3-phenoxyphenyl) propionic acid, reference compound] is ____.
Ans. 100

Qu. Fill in the blank: the reported solubility of CC(C(=O)O)c1ccc(N2Cc3ccccc3C2=O)cc1 (stereo not shown) is ____.
Ans. 100

Qu. Fill in the blank: the reported solubility of `CC(C)Cc1ccc(CC(=O)O)cc1` is ____.
Ans. 100

Qu. Fill in the blank: the reported solubility of `COc1ccc2c(c1)c(CC(=O)O)c(C)n2C(=O)c1ccc(Cl)cc1` is ____.
Ans. 100

Qu. Fill in the blank: the reported solubility of CC(C(=O)O)c1ccc(-c2ccccc2)c(F)c1 (stereo not shown) [Flurbiprofen, flurbiprofen, reference compound] is ____.
Ans. 200

Qu. Fill in the blank: the reported solubility of Cc1ccc2c(c1)CC(=O)c1cc(C(C)C(=O)O)ccc1O2 (stereo not shown) [Bermoprofen, bermoprofen, reference compound] is ____.
Ans. 100

Qu. Fill in the blank: the reported solubility of O=C(O)CCc1nc(-c2ccccc2)c(-c2ccccc2)o1 [Oxaprozin, oxaprozin, reference compound] is ____.
Ans. 100

Qu. Fill in the blank: the reported solubility of C=C(C)CNc1ccc(C(C)C(=O)O)cc1 (stereo not shown) is ____.
Ans. 100

Qu. Fill in the blank: the reported solubility of `Cc1ccc(C(=O)c2ccc(CC(=O)O)n2C)cc1` is ____.
Ans. 200

Qu. Fill in the blank: the reported solubility of CC(C(=O)O)c1ccc(N2CC=CC2)c(Cl)c1 (stereo not shown) [Pirprofen, pirprofen, reference compound] is ____.
Ans. 100

Qu. Fill in the blank: the reported solubility of CC(C(=O)O)c1ccc(C(=O)c2cccs2)cc1 (stereo not shown) [Suprofen, suprofen, reference compound] is ____.
Ans. 100

====

- Tested on: rat
- applied conditions: rats
metric: LD50 of HPP (mg/kg)
Kindly provide the numeric value in mg/kg only, without the unit symbol.

Qu. Fill in the blank: the reported LD50 of HPP of C=C(C)CNc1ccc(C(C)C(=O)OCCN(CC)CC)cc1.CC(=O)O (stereo not shown) is ____.
Ans. 1100

Qu. Fill in the blank: the reported LD50 of HPP of `Cc1cnc(NC(=O)C2=C(OC(=O)CCCN(C)C)c3ccccc3S(=O)(=O)N2C)s1.Cl` is ____.
Ans. 590

Qu. Fill in the blank: the reported LD50 of HPP of CC(=O)O.CCN(CC)CCOC(=O)c1ccccc1OC(=O)c1ccccc1O [diethylaminoethyl salicylsalicylate.AcOH] is ____.
Ans. 2000

Qu. Fill in the blank: the reported LD50 of HPP of CC(=O)O.CCN(CC)CCOC(=O)C(C)c1cccc(Oc2ccccc2)c1 (stereo not shown) is ____.
Ans. 1500

Qu. Fill in the blank: the reported LD50 of HPP of `CN(C)CCCC(=O)OC1=C(C(=O)Nc2ccccn2)N(C)S(=O)(=O)c2ccccc21.Cl` is ____.
Ans. 550

Qu. Fill in the blank: the reported LD50 of HPP of `CC(=O)O.CCN(CC)CCOC(=O)c1cc(-c2ccc(F)cc2F)ccc1O` is ____.
Ans. 1000

Qu. Fill in the blank: the reported LD50 of HPP of CC(=O)O.CCc1cccc2c3c([nH]c12)C(CC)(CC(=O)OCCN(CC)CC)OCC3 (stereo not shown) is ____.
Ans. 600

Qu. Fill in the blank: the reported LD50 of HPP of CC(=O)O.CCN(CC)CCOC(=O)C(Cl)c1ccc(C2CCCCC2)c(Cl)c1 (stereo not shown) is ____.
Ans. 600

Qu. Fill in the blank: the reported LD50 of HPP of CC(=O)O.CCN(CC)CCOC(=O)c1ccccc1O [diethylaminoethyl salicylate.AcOH] is ____.
Ans. 1600

Qu. Fill in the blank: the reported LD50 of HPP of CC(=O)Oc1ccccc1C(=O)OCCN(C)C [dimethylaminoethyl acetylsalicylate.AcOH] is ____.
Ans. 2200

Qu. Fill in the blank: the reported LD50 of HPP of CC(=O)O.CCN(CC)CCOC(=O)C(C)c1ccc2oc(-c3ccc(Cl)cc3)nc2c1 (stereo not shown) is ____.
Ans. 1300

Qu. Fill in the blank: the reported LD50 of HPP of `CC(=O)O.CCN(CC)CCOC(=O)Cc1cccc(C(=O)c2ccc(Br)cc2)c1N` is ____.
Ans. 1600

Qu. Fill in the blank: the reported LD50 of HPP of `C=CCOc1ccc(CC(=O)OCCN(CC)CC)cc1Cl.CC(=O)O` is ____.
Ans. 3000

Qu. Fill in the blank: the reported LD50 of HPP of CC(=O)O.CCN(CC)CCOC(=O)C(C)c1ccc(CC(C)C)cc1 (stereo not shown) is ____.
Ans. 1800

Qu. Fill in the blank: the reported LD50 of HPP of CC(=O)O.CCN(CC)CCOC(=O)C1CCc2cc(C3CCCCC3)c(Cl)cc21 (stereo not shown) is ____.
Ans. 200

Qu. Fill in the blank: the reported LD50 of HPP of `CC(=O)O.CCN(CC)CCOC(=O)c1cccnc1Nc1cccc(C(F)(F)F)c1C` is ____.
Ans. 1100

Qu. Fill in the blank: the reported LD50 of HPP of `CC(=O)O.CCN(CC)CCOC(=O)Cc1cccc(C(=O)c2ccccc2)c1N` is ____.
Ans. 1000

Qu. Fill in the blank: the reported LD50 of HPP of CC(=O)O.CCN(CC)CCOC(=O)CC1=C(C)/C(=C/c2ccc([S+](C)[O-])cc2)c2ccc(F)cc21 (stereo not shown) is ____.
Ans. 500

Qu. Fill in the blank: the reported LD50 of HPP of `CC(=O)O.CCN(CC)CCOC(=O)c1ccccc1Nc1cccc(C)c1C` is ____.
Ans. 900

====

- Tested on: rat
- applied conditions: rats
metric: LD50 of HPP (mg/kg)
Kindly provide the numeric value in mg/kg only, without the unit symbol.

Qu. Fill in the blank: the reported LD50 of HPP of `CC(=O)O.CCN(CC)CCOC(=O)c1ccccc1Nc1cccc(C(F)(F)F)c1` is ____.
Ans. 800

Qu. Fill in the blank: the reported LD50 of HPP of `CN(C)CCCC(=O)OC1=C(C(=O)Nc2ccccn2)N(C)S(=O)(=O)c2cc(Cl)sc21.Cl` is ____.
Ans. 580

Qu. Fill in the blank: the reported LD50 of HPP of CC(=O)O.CCN(CC)CCOC(=O)C(C)c1ccc(C(=O)c2cccs2)cc1 (stereo not drawn) is ____.
Ans. 800

Qu. Fill in the blank: the reported LD50 of HPP of CC(=O)O.CCN(CC)CCOC(=O)C(C)c1ccc(N2Cc3ccccc3C2=O)cc1 (stereo not drawn) is ____.
Ans. 3500

Qu. Fill in the blank: the reported LD50 of HPP of CC(=O)O.CCN(CC)CCOC(=O)C(C)c1cccc(C(=O)c2ccccc2)c1 (stereo not drawn) is ____.
Ans. 300

Qu. Fill in the blank: the reported LD50 of HPP of `CC(=O)O.CCN(CC)CCOC(=O)Cc1cn(-c2ccccc2)nc1-c1ccc(Cl)cc1` is ____.
Ans. 1200
